Recorded values, source PubChem BioAssay (Tox21).

experiment: qHTS RealTime-Glo MT Cell Viability Assay in HepG2 cells - 24 hour (AID 1224867); conditions: RealTime-Glo luminescence; series mostly up to 76.8 µM; also: nearly all actives have a fitted effect of over 50% in size
Results filed as inconclusive are left out. Calls of active or inactive are those of the source. Calls follow the shape of the dose curve; as a rule, active = well fitted cell-killing curve with a large enough effect in the repeat runs; inconclusive = weak or mixed curves; inactive = flat fitted curve, though single readings scatter.
Outcome codes: active, inactive

ClC(Cl)=C(c1ccc(Cl)cc1)c1ccccc1Cl = inactive
N#Cc1cc([N+](=O)[O-])ccc1N = inactive
Nc1ccc([N+](=O)[O-])cc1 = inactive
COc1cc(OC)c(OC)cc1C=O = inactive
O=[N+]([O-])c1c(Cl)c(Cl)cc(Cl)c1Cl = inactive
Cc1cc(C(C)(C)c2ccc(O)c(C)c2)ccc1O = inactive
CCN(CC)C(=O)Cl = inactive
CN1CSC(=S)N(C)C1 = active
Cc1ccc(N(SC(F)(Cl)Cl)S(=O)(=O)N(C)C)cc1 = active
OC(Cc1ccccc1Cl)(Cn1[nH]cnc1=S)C1(Cl)CC1 (stereo not given) = inactive
CC(c1ccccc1)(c1ccc(O)cc1)c1ccc(O)cc1 = inactive
O=C1C(I)=CC(=C(c2cc(I)c(O)c(I)c2)c2ccccc2C(=O)O)C=C1I = inactive
CNC(=O)Oc1cc(C)c(SC)c(C)c1 = inactive
O=S(=O)(C(Cl)(Cl)Cl)C(Cl)(Cl)Cl = active
C[C@]12CC[C@@H](O)C[C@@H]1CC[C@@H]1[C@@H]2CC[C@]2(C)C(=O)CC[C@@H]12 = inactive

====

test: qHTS RealTime-Glo MT Cell Viability Assay in HepG2 cells - 16 hour (AID 1224885); conditions: RealTime-Glo luminescence; series mostly up to 76.8 µM; also: nearly all actives have a fitted effect of over 50% in size
Records with an inconclusive call do not appear. Activity calls are given as the source filed them. Calls follow the shape of the dose curve; as a rule, active = well fitted cell-killing curve with a large enough effect in the repeat runs; inconclusive = weak or mixed curves; inactive = flat fitted curve, though single readings scatter.
Possible outcomes: true (1) for active, false (0) for inactive

Cc1ccc(N(SC(F)(Cl)Cl)S(=O)(=O)N(C)C)cc1 = true (1)
CNC(=O)Oc1cc(C)c(SC)c(C)c1 = false (0)
CC(c1ccccc1)(c1ccc(O)cc1)c1ccc(O)cc1 = false (0)
Cc1cc(C(C)(C)c2ccc(O)c(C)c2)ccc1O = false (0)
OC(Cc1ccccc1Cl)(Cn1[nH]cnc1=S)C1(Cl)CC1 (stereo not drawn) = false (0)
Nc1ccc([N+](=O)[O-])cc1 = false (0)
c1ccc2c(c1)Sc1ccccc1N2CC1CN2CCC1CC2 (stereo not drawn) = true (1)
C[C@]12CC[C@@H](O)C[C@@H]1CC[C@@H]1[C@@H]2CC[C@]2(C)C(=O)CC[C@@H]12 = false (0)

====

Assay: qHTS assay for identifying genotoxic compounds that show differential cytotoxicity against isogenic chicken DT40 cell lines with known DNA damage response pathways - wild type cell line (AID 743012); also: nearly all actives have a fitted effect of over 60% in size
Conditions: DT40 wild type chicken cells viability, CellTiter-Glo, 40 h; series mostly up to 68.4 µM
Source text: U.S. Tox21 Program National Center for Advancing Translational Sciences [NCATS] NIH Chemical Genomics Center [NCGC] U.S. Environmental Protection Agency [EPA] National Institutes of Environmental Health Sciences [NIEHS] National Toxicology Program [NTP] U.S. Food and Drug Administration [FDA] Tox21 Assay Overview: DNA repair pathways play a critical role in cellular homeostasis by repairing DNA damage induced by endogenous processes and xenobiotics. […]
Records with an inconclusive call do not appear. Activity calls are given as the source filed them. The call rests on the fitted dose curve; in most records, active means well fitted cell-killing curve with a large enough effect in the repeat runs; inconclusive means weak or mixed curves, or effect the other way; inactive means no such curve, though single readings can be large or run the other way.
Labels: active, inactive

C[C@]12CC[C@H](O)C[C@H]1CC[C@@H]1[C@@H]2CC[C@]2(C)[C@@H](c3ccc(=O)oc3)C[C@H]3O[C@]132 = active
CCCCCc1cc(O)c2c(c1)OC(C)(C)c1ccc(C)cc1-2 = active
F/C(COc1ccc2c(c1)[nH]c1ccccc12)=C1/CN2CCC1CC2 = active
CC(=O)O[C@H]1C[C@H](O[C@H]2[C@@H](O)C[C@H](O[C@H]3[C@@H](O)C[C@H](OC4CC[C@@]5(C)[C@H](CC[C@@H]6[C@@H]5CC[C@]5(C)[C@@H](C7=CC(=O)OC7)CC[C@]65O)C4)O[C@@H]3C)O[C@@H]2C)O[C@H](C)[C@H]1O[C@@H]1O[C@H](CO)[C@@H](O)[C@H](O)[C@H]1O (stereo partly drawn) = active
OCC(c1ccc(Cl)cc1)c1ccc(Cl)cc1 = active
CCON=O = inactive
COc1ccc2c3c1O[C@H]1[C@@H](O)C=C[C@H]4[C@@H](C2)NCC[C@@]341 = inactive
CCOC(=O)C1(c2ccccc2)CCCN(C)CC1 (stereo not drawn) = inactive
